The reported numbers originate from the NIST ThermoML archive (doi:10.1021/je700099w).

Conditions Used: 298.15 K; 101.33 kPa; Liquid
Lab note: anything with mass density at or over 1000 kg/m3 counts as Fulfilled; the rest go in Not fulfilled.

[
  {
    "Molecule": "CCCCCO",
    "Category": "Not fulfilled"
  },
  {
    "Molecule": "CCCCCCCC[n+]1ccn(C)c1.F[P-](F)(F)(F)(F)F [1-octyl-3-methylimidazolium hexafluorophosphate]",
    "Category": "Fulfilled"
  },
  {
    "Molecule": "CCCCn1cc[n+](C)c1.F[P-](F)(F)(F)(F)F [1-butyl-3-methylimidazolium hexafluorophosphate]",
    "Category": "Fulfilled"
  },
  {
    "Molecule": "CCCO",
    "Category": "Not fulfilled"
  }
]

Problem: Does the reported mass density for CCCCO fall at or above the 1000 kg/m3 mark?
Solution: Not fulfilled

Problem: State whether the measured mass density reaches 1000 kg/m3, counting equality as reaching it, for CCCCCCn1cc[n+](C)c1.F[P-](F)(F)(F)(F)F [1-hexyl-3-methylimidazolium hexafluorophosphate]
Solution: Fulfilled
